# credit: ChEMBL document CHEMBL5053510

assay-endpoint: IC50 (µM)
Number only, in µM; omit the unit.

Inquiry: Write down the reported IC50 of Nc1nc(-c2cccc(-n3ccc4cc(C5CC5)cc(F)c4c3=O)c2CO)c2cc(C3=CCN(C4COC4)CC3)[nH]c2n1 [MILREBRUTINIB] , test system: Cytochrome P450 2C9 (Homo sapiens).
Sequence (P11712 whole entry): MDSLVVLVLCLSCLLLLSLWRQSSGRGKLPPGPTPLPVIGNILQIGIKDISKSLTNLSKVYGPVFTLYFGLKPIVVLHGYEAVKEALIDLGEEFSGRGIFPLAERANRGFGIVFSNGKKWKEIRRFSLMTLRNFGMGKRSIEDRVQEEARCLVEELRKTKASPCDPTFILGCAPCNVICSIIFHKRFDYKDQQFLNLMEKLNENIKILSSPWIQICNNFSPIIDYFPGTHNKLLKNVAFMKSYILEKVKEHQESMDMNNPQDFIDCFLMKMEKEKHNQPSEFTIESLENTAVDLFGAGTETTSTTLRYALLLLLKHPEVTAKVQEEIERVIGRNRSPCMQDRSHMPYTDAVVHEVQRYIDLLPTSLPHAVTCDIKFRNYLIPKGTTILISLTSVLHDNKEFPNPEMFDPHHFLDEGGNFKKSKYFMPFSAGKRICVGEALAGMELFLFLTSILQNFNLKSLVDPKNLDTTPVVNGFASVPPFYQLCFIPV
Reply text: 5.38

###

# measurement-description: Initial plasma concentration in dog at 1 mg/kg, iv
# Assay type: ADME, organism-based, Canis lupus familiaris
assay-endpoint: C0 (ng/mL)
Number only, in ng/mL; omit the unit.

Inquiry: Tell me the measured C0 of Nc1nc(-c2cccc(-n3ccc4cc(C5CC5)cc(F)c4c3=O)c2CO)c2cc(C3=CCN(C4COC4)CC3)[nH]c2n1 , please.
Reply text: 1280

###

# measurement-description: Clearence in rat at 2 mg/kg, iv
# Assay type: ADME, organism-based
# condition-notes: in vivo
assay-endpoint: clearance (mL/min/kg)
Number only, in mL/min/kg; omit the unit.

Inquiry: Tell me the measured clearance of Nc1nc(-c2cccc(-n3ccc4cc(C5CC5)cc(F)c4c3=O)c2CO)c2cc(C3=CCN(C4COC4)CC3)[nH]c2n1 [MILREBRUTINIB] , please.
Reply text: 20.3

###

# target-under-test: UniProtKB Q06187
# Sequence (Q06187 whole entry): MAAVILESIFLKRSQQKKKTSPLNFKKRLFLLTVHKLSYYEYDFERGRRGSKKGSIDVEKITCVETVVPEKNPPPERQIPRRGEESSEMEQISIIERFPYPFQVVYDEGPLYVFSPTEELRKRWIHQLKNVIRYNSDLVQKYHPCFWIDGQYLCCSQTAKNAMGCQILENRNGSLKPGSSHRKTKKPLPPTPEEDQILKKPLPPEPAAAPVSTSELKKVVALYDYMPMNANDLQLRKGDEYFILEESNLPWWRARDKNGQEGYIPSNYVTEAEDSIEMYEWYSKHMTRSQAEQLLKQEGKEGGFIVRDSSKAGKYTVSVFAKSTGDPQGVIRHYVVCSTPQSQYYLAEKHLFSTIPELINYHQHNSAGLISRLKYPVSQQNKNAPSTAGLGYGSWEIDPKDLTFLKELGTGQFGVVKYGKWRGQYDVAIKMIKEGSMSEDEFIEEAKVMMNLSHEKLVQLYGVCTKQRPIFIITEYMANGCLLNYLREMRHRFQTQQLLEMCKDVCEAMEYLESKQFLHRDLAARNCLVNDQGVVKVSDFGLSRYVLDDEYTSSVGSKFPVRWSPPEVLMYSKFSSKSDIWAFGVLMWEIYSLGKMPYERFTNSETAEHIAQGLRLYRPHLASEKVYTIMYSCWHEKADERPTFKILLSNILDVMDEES
# measurement-description: Inhibition of human BTK-A using phosphorylated substrate in presence of ATP by microplate reader assay
assay-endpoint: IC50 (nM)
Number only, in nM; omit the unit.

Inquiry: Tell me the measured IC50 of Nc1nc(-c2cccc(-n3ccc4cc(C5CC5)cc(F)c4c3=O)c2CO)c2cc(C3=CCN(C4COC4)CC3)[nH]c2n1 , please.
Reply text: 0.85

Inquiry: Tell me the measured IC50 of CN(C)C(=O)N1CC=C(c2cc3c(-c4cccc(-n5ccc6cc(C7CC7)cc(F)c6c5=O)c4CO)nc(N)nc3[nH]2)CC1 , please.
Reply text: 0.54

Inquiry: Tell me the measured IC50 of Nc1nc(-c2cccc(-n3ccc4cc(C5CC5)cc(F)c4c3=O)c2CO)c2cc(-c3ccccc3)[nH]c2n1 , please.
Reply text: 14

Inquiry: Tell me the measured IC50 of Nc1nc(-c2cccc(-n3ccc4cc(C5CC5)cc(F)c4c3=O)c2CO)c2cc(-c3cccnc3)[nH]c2n1 , please.
Reply text: 2.1

Inquiry: Tell me the measured IC50 of Nc1nc(-c2cccc(-n3ccc4cc(C5CC5)cc(F)c4c3=O)c2CO)c2cc(C3=CCNCC3)[nH]c2n1 , please.
Reply text: 0.65

Inquiry: Tell me the measured IC50 of Nc1nc(-c2cccc(-n3ccc4cc(C5CC5)cc(F)c4c3=O)c2CO)c2cc(C3=CCCCC3)[nH]c2n1 , please.
Reply text: 2.6

Inquiry: Tell me the measured IC50 of Cc1cc2c(-c3cccc(-n4ccc5cc(C6CC6)cc(F)c5c4=O)c3CO)nc(N)nc2[nH]1 , please.
Reply text: 49

Inquiry: Tell me the measured IC50 of Nc1nc(-c2cccc(-n3ccc4cc(C5CC5)cc(F)c4c3=O)c2CO)c2cc(-c3ccncc3)[nH]c2n1 , please.
Reply text: 0.14

Inquiry: Tell me the measured IC50 of Nc1nc(-c2cccc(-n3ccc4cc(C5CC5)cc(F)c4c3=O)c2CO)c2cc(C3=CCN(C(=O)CN4CCOCC4)CC3)[nH]c2n1 , please.
Reply text: 0.69

Inquiry: Tell me the measured IC50 of CC(=O)N1CC=C(c2cc3c(-c4cccc(-n5ccc6cc(C7CC7)cc(F)c6c5=O)c4CO)nc(N)nc3[nH]2)CC1 , please.
Reply text: 0.71

Inquiry: Tell me the measured IC50 of CN1CCN(C(=O)N2CC=C(c3cc4c(-c5cccc(-n6ccc7cc(C8CC8)cc(F)c7c6=O)c5CO)nc(N)nc4[nH]3)CC2)CC1 , please.
Reply text: 0.65

Inquiry: Tell me the measured IC50 of Nc1nc(-c2cccc(-n3ccc4cc(C5CC5)cc(F)c4c3=O)c2CO)c2cc[nH]c2n1 , please.
Reply text: 51

###

# measurement-description: Half life in rat at 2 mg/kg, iv
# Assay type: ADME, organism-based
# condition-notes: in vivo
assay-endpoint: half-life (h)
Number only, in h; omit the unit.

Inquiry: Tell me the measured half-life of Nc1nc(-c2cccc(-n3ccc4cc(C5CC5)cc(F)c4c3=O)c2CO)c2cc(C3=CCN(C4COC4)CC3)[nH]c2n1 , please.
Reply text: 2.65

###

# Test system: HEL 299
# measurement-description: Cytotoxicity against human HEL 299 cells assessed as cell growth inhibition measured after 96 hrs
# Format: cell-based
# condition-notes: HEL 299, 96 h
assay-endpoint: IC50
The answer should read as a number with its unit following.

Inquiry: Tell me the measured IC50 of Nc1nc(-c2cccc(-n3ccc4cc(C5CC5)cc(F)c4c3=O)c2CO)c2cc(C3=CCN(C4COC4)CC3)[nH]c2n1 [MILREBRUTINIB] , please.
Reply text: 6.37 µM

###

# measurement-description: Volume of distribution at steady state in mouse at 2 mg/kg, iv
# Assay type: ADME, organism-based
# condition-notes: in vivo, read-out: Vdss
assay-endpoint: Vd
The answer should read as a number with its unit following.

Inquiry: Tell me the measured Vd of Nc1nc(-c2cccc(-n3ccc4cc(C5CC5)cc(F)c4c3=O)c2CO)c2cc(C3=CCN(C4COC4)CC3)[nH]c2n1 [MILREBRUTINIB] , please.
Reply text: 1.61 L/kg

###

# measurement-description: Clearence in dog at 1 mg/kg, iv
# Assay type: ADME, organism-based, Canis lupus familiaris
# condition-notes: in vivo
assay-endpoint: clearance (mL/min/kg)
Number only, in mL/min/kg; omit the unit.

Inquiry: Tell me the measured clearance of Nc1nc(-c2cccc(-n3ccc4cc(C5CC5)cc(F)c4c3=O)c2CO)c2cc(C3=CCN(C4COC4)CC3)[nH]c2n1 , please.
Reply text: 22.7

###

# measurement-description: Oral bioavailability in rat at 15 mg/kg
# Assay type: ADME, organism-based
# condition-notes: in vivo
assay-endpoint: bioavailability
The answer should read as a number with its unit following.

Inquiry: Tell me the measured bioavailability of Nc1nc(-c2cccc(-n3ccc4cc(C5CC5)cc(F)c4c3=O)c2CO)c2cc(C3=CCN(C4COC4)CC3)[nH]c2n1 , please.
Reply text: 15.9%
